Where do these numbers come from? They come from patent US10870652B2.

pIC50: −log10 of the molar value.
Lab note: pIC50 readings collected with TXK (Homo sapiens) for the following compounds.
Sequence (P42681 whole entry, species assumed): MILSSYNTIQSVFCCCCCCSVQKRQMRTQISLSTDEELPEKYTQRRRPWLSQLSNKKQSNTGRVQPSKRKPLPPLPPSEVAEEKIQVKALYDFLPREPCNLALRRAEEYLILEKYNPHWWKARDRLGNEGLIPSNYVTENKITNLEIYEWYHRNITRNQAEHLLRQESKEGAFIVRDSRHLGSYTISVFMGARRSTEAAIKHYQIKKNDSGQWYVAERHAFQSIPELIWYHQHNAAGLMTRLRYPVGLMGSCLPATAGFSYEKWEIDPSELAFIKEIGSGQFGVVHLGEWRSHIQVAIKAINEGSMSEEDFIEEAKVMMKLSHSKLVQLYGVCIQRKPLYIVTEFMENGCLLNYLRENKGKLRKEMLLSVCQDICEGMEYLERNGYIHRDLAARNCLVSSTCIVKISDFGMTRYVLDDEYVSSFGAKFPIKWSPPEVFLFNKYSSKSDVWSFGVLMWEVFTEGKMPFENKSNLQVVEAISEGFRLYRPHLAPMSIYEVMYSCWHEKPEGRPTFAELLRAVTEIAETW

Enquiry: Give its pIC50 value. Item: CC#CC(=O)N1CC[C@H]1Cn1nc(-c2ccc(Oc3ccccc3)cc2)c2cncnc21 [Compound A66]
Return: < 6.30

Enquiry: Give its pIC50 value. Item: CN1CCN(CC#CC(=O)N2CC3(CC(n4nc(-c5ccc(Oc6ccccc6)cc5)c5cncnc54)C3)C2)CC1 [Compound A76]
Return: > 7.00

Enquiry: Give its pIC50 value. Item: CC#CC(=O)N1CCC[C@H]1c1nc(-c2ccc(Oc3ccccc3)cc2)c2cnccn12 [Compound A31]
Return: < 6.30

Enquiry: Give its pIC50 value. Item: C=CC(=O)N1CC[C@H](n2nc(-c3ccc(Oc4ccccc4)cc3)c3cncnc32)C1 [Compound A12]
Return: 6.30 to 7.00

Enquiry: Give its pIC50 value. Item: C=CC(=O)N1CCC[C@@H](n2nc(-c3ccc(Oc4ccccc4)cc3)c3cncnc32)C1 [Compound A9]
Return: > 7.00

Enquiry: Give its pIC50 value. Item: CC#CC(=O)N1CC2(CC(n3nc(-c4ccc(Oc5ccccc5)cc4)c4cncnc43)C2)C1 [Compound A60]
Return: > 7.00

Enquiry: Give its pIC50 value. Item: C=CC(=O)N1CC(F)(F)C[C@H]1Cn1nc(-c2ccc(Oc3ccccc3)cc2)c2cncnc21 [Compound A41]
Return: > 7.00

Enquiry: Give its pIC50 value. Item: C=CC(=O)N1CCC[C@@H](n2nc(-c3ccc(Oc4ccccc4)cc3C)c3cncnc32)C1 [Compound A4]
Return: > 7.00

Enquiry: Give its pIC50 value. Item: CC#CC(=O)N1CCC[C@@H](n2nc(-c3ccc(Oc4ccccc4)cc3)c3cncnc32)C1 [Compound A16]
Return: < 6.30

Enquiry: Give its pIC50 value. Item: C=CC(=O)N1CCC[C@@H](n2nc(-c3ccc(Oc4ccccc4)c(C)c3)c3cncnc32)C1 [Compound A5]
Return: 6.30 to 7.00

Enquiry: Give its pIC50 value. Item: C=CC(=O)N1CCC[C@@H](n2nc(-c3ccc(Oc4ccccc4)cc3)c3cnccc32)C1 [Compound A23]
Return: > 7.00

Enquiry: Give its pIC50 value. Item: C=CC(=O)N1CCC[C@H]1Cn1nc(-c2ccc(Oc3ccccc3)cc2F)c2cncnc21 [Compound A19]
Return: > 7.00

Enquiry: Give its pIC50 value. Item: CCC#CC(=O)N1CC2(CC(n3nc(-c4ccc(Oc5ccccc5)cc4)c4cncnc43)C2)C1 [Compound A71]
Return: 6.30 to 7.00

Enquiry: Give its pIC50 value. Item: C=CC(=O)N1CC[C@H](Cn2nc(-c3ccc(Oc4ccccc4)cc3)c3cncnc32)C1 [Compound A15]
Return: 6.30 to 7.00

Enquiry: Give its pIC50 value. Item: C=CC(=O)N1CCC[C@@]1(C)Cn1nc(-c2ccc(Oc3ccccc3)cc2F)c2cncnc21 [Compound A52]
Return: > 7.00

Enquiry: Give its pIC50 value. Item: CC#CC(=O)N[C@H]1C[C@H](n2nc(-c3ccc(Oc4ccccc4)cc3)c3cncnc32)C1 [Compound A69]
Return: < 6.30

====

Record form. Attribute: pIC50. Fill in for each entry.
Target: JAK3 (Homo sapiens, UniProt P52333)
Sequence (P52333 1-1124): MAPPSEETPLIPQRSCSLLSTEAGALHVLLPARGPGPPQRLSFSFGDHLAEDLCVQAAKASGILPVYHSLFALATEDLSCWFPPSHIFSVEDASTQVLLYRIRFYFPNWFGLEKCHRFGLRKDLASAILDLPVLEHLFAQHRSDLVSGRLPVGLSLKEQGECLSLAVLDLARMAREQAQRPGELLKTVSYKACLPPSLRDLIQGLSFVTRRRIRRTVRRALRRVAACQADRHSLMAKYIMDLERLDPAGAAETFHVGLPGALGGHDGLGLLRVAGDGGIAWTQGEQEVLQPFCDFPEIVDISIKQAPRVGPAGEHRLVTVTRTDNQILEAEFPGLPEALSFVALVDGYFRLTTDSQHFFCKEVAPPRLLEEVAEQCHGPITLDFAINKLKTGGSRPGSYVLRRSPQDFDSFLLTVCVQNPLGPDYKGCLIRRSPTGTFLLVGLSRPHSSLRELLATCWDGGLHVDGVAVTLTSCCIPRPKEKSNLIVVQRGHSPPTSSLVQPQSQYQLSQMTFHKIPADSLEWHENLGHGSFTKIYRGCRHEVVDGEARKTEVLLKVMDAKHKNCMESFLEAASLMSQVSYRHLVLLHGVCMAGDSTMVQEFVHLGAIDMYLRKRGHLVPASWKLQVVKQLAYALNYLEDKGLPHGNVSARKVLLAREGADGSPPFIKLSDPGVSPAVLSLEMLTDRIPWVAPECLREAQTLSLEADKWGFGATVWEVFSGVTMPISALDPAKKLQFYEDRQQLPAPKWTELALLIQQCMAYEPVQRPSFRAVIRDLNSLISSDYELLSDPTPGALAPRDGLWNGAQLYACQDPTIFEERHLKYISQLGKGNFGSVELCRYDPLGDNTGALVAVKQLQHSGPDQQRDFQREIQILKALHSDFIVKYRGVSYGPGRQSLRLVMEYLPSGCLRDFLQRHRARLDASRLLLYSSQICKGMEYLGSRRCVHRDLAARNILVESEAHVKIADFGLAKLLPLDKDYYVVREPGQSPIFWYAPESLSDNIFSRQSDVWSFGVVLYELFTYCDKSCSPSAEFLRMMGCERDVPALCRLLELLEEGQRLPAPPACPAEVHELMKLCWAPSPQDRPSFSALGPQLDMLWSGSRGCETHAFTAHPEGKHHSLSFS
pIC50: −log10 of the molar value.

Enquiry: Give its pIC50 value. Item: CC#CC(=O)N[C@H]1CC[C@H](n2nc(-c3ccc(Oc4ccccc4)cc3)c3cncnc32)CC1 [Compound A70]
Return: < 6.30

Enquiry: Give its pIC50 value. Item: C=C(C)C(=O)N1CCC[C@@H](n2nc(-c3ccc(Oc4ccccc4)cc3)c3cncnc32)C1 [Compound A21]
Return: < 6.30

Enquiry: Give its pIC50 value. Item: CC#CC(=O)N1CC[C@@H](Cn2nc(-c3ccc(Oc4ccccc4)cc3)c3cncnc32)C1 [Compound A63]
Return: < 6.30

Enquiry: Give its pIC50 value. Item: C=CC(=O)NCCn1nc(-c2ccc(Oc3ccccc3)cc2)c2cncnc21 [Compound A42]
Return: < 6.30

Enquiry: Give its pIC50 value. Item: CC#CC(=O)N[C@H]1C[C@H](n2nc(-c3ccc(Oc4ccccc4)cc3)c3cncnc32)C1 [Compound A69]
Return: < 6.30

Enquiry: Give its pIC50 value. Item: C=CC(=O)N1CCC[C@H]1Cn1nc(-c2ccc(Oc3cccc(C(F)F)c3)cc2)c2cncnc21 [Compound A47]
Return: < 6.30

Enquiry: Give its pIC50 value. Item: C=CC(=O)N1CCC[C@@H](n2nc(-c3ccc(Oc4ccccc4)cc3)c3cnccc32)C1 [Compound A23]
Return: < 6.30

Enquiry: Give its pIC50 value. Item: C=CC(=O)N1CCC[C@@H](n2nc(-c3ccc(Oc4c(F)cccc4F)cc3)c3cncnc32)C1 [Compound A50]
Return: < 6.30

Enquiry: Give its pIC50 value. Item: C=CC(=O)N1CCC[C@@H](n2nc(-c3ccc(Oc4ccccc4)cc3F)c3cnccc32)C1 [Compound A24]
Return: < 6.30

Enquiry: Give its pIC50 value. Item: O=C(C#CC1CC1)N1CC2(CC(n3nc(-c4ccc(Oc5ccccc5)cc4)c4cncnc43)C2)C1 [Compound A78]
Return: < 6.30

Enquiry: Give its pIC50 value. Item: C=CC(=O)N1CC[C@@H](n2nc(-c3ccc(Oc4ccccc4)cc3)c3cncnc32)C1 [Compound A6]
Return: < 6.30

Enquiry: Give its pIC50 value. Item: C=CC(=O)N1CCC[C@@]1(C)Cn1nc(-c2ccc(Oc3ccccc3)cc2F)c2cncnc21 [Compound A52]
Return: < 6.30

Enquiry: Give its pIC50 value. Item: CC#CC(=O)N1CCC[C@H]1Cn1nc(-c2ccc(Oc3ccccc3)cc2F)c2cncnc21 [Compound A20]
Return: < 6.30

Enquiry: Give its pIC50 value. Item: C=CC(=O)N1CC[C@@H](Cn2nc(-c3ccc(Oc4ccccc4)cc3)c3cncnc32)C1 [Compound A14]
Return: < 6.30

Enquiry: Give its pIC50 value. Item: C=CC(=O)N1CCC[C@@]1(C)Cn1nc(-c2ccc(Oc3ccccc3)cc2)c2cncnc21 [Compound A45]
Return: < 6.30

Enquiry: Give its pIC50 value. Item: C=CC(=O)N1CC2(CC(n3nc(-c4ccc(Oc5ccccc5)cc4)c4cncnc43)C2)C1 [Compound A37]
Return: < 6.30

Enquiry: Give its pIC50 value. Item: CC#CC(=O)N1CC[C@@H]1Cn1nc(-c2ccc(Oc3ccccc3)cc2)c2cncnc21 [Compound A67]
Return: < 6.30

Enquiry: Give its pIC50 value. Item: CC#CC(=O)N1CC[C@@H](c2nc(-c3ccc(Oc4ccccc4)cc3)c3cnccn23)C1 [Compound A32]
Return: < 6.30

Enquiry: Give its pIC50 value. Item: C=CC(=O)N1CCC[C@@H](n2nc(-c3ccc(Oc4ccccc4)cc3)c3cncnc32)C1 [Compound A9]
Return: < 6.30

Enquiry: Give its pIC50 value. Item: C=CC(=O)N1CC(C)(C)C[C@H]1Cn1nc(-c2ccc(Oc3ccccc3)cc2)c2cncnc21 [Compound A49]
Return: < 6.30

Enquiry: Give its pIC50 value. Item: CC#CC(=O)N1CCC[C@@H]1Cn1nc(-c2ccc(Oc3ccccc3)cc2)c2cncnc21 [Compound A65]
Return: < 6.30

Enquiry: Give its pIC50 value. Item: C=CC(=O)N1CCC[C@@H](n2nc(-c3ccc(Oc4ccccc4)cc3F)c3cncnc32)C1 [Compound A2]
Return: 6.30 to 7.00

Enquiry: Give its pIC50 value. Item: CN(C)CC#CC(=O)N1CC2(CC(n3nc(-c4ccc(Oc5ccccc5)cc4)c4cncnc43)C2)C1 [Compound A75]
Return: 6.30 to 7.00

Enquiry: Give its pIC50 value. Item: C=CC(=O)N1CCC[C@@H](c2nc(-c3ccc(Oc4ccccc4)cc3)c3cnccn23)C1 [Compound A28]
Return: < 6.30

Enquiry: Give its pIC50 value. Item: C=CC(=O)N1CCC[C@@H](n2nc(-c3ccc(Oc4ccccc4)cc3C#N)c3cncnc32)C1 [Compound A33]
Return: < 6.30

Enquiry: Give its pIC50 value. Item: C=C(F)C(=O)N1CCC[C@@H](n2nc(-c3ccc(Oc4ccccc4)cc3)c3cncnc32)C1 [Compound A62]
Return: < 6.30

Enquiry: Give its pIC50 value. Item: C=CC(=O)N1CCC[C@H]1Cn1nc(-c2ccc(Oc3ccccc3)cc2F)c2cncnc21 [Compound A19]
Return: < 6.30

Enquiry: Give its pIC50 value. Item: C=CC(=O)N1CC(Cn2nc(-c3ccc(Oc4ccccc4)cc3)c3cncnc32)C1 [Compound A35]
Return: < 6.30

Enquiry: Give its pIC50 value. Item: C=CC(=O)N1CC(F)(F)C[C@H]1Cn1nc(-c2ccc(Oc3ccccc3)cc2)c2cncnc21 [Compound A41]
Return: < 6.30

Enquiry: Give its pIC50 value. Item: C=CC(=O)N1CC[C@H](Cn2nc(-c3ccc(Oc4ccccc4)cc3)c3cncnc32)C1 [Compound A15]
Return: < 6.30

Enquiry: Give its pIC50 value. Item: C=CC(=O)N1CC(n2nc(-c3ccc(Oc4ccccc4)cc3)c3cncnc32)C1 [Compound A13]
Return: < 6.30
